Measurement Notes: Equilibrium solubility in pH buffers and biorelevant media
Type: physicochemical
Applied Conditions: pH 4.78; FaSSGF-PH4.78 (elevated gastric pH after esomeprazole); read-out: Solubility (mean ± SD) at fasted state
Experimental: After incubation of 2 h, 1 ml aliquot of each sample was withdrawn from the tube. The samples were filtered using a 0.22 μm filter, the first 0.8 ml was discarded, and the remaining 0.2 ml was analyzed by the HPLC. The specific experiments containing different conditions are as follows: • i) Solubility testing in simulated fasted and fed media Specifically, solubility media were prepared using different phosphate buffers. […]
Metric Name: solubility at 2 h
Include the unit right after the number.

## Task If you can, please state the reported solubility at 2 h value of Cc1ccc(Nc2nccc(N(C)c3ccc4c(C)n(C)nc4c3)n2)cc1S(N)(=O)=O .
## Result 46.1 µg/mL
